The binders listed here are annotated with their pEC50.
Target: T1, human 4-1BB expressed on cells (human, UniProt Q07011 24-255)
T1 construct: whole, on cells; also called CHO-K1/hu4-1BB; cell surface human 4-1BB
T1 sequence (Q07011 24-255): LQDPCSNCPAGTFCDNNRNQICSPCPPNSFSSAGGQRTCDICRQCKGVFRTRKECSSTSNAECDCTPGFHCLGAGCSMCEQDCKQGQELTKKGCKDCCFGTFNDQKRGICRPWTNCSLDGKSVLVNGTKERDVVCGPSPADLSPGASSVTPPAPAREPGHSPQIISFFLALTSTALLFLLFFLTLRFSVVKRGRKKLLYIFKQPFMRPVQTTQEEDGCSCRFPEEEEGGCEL
Method Notes: flow cytometry on CHO-K1/hu4-1BB cells, anti-human Fc-Alexa Fluor 633
// field semantics: pEC50 = negative decimal log of concentration (mol/L)

[
  {
    "Binder": "VV02-1SP (1)-73 huNb_1_3 (Fc fusion, detection by anti-human Fc; not shown: Fc part, implied only by the anti-human Fc secondary antibody) VHH: EVDLVESGGGLVQPGGSLRLSCAVSGFTFSSSAMSWARQAPGKEFEWVSSIYSSGKTYYVESVKGRFTISRDNAKNTVYLQMSSLRPEDTAVYYCATWKTLRVGVWDESDYWGQGTLVTVSS",
    "pEC50": 9.21
  },
  {
    "Binder": "VV02-1SP (1)-73 huNb_3_1 (Fc fusion, detection by anti-human Fc; not shown: Fc part, implied only by the anti-human Fc secondary antibody) VHH: EVQLVESGGGLVQPGGSLRLSCAASGFTFSSSAMSWARQAPGKGFEWVASIYSSGKTYYVESVKGRFTISRDNAKNSLYLQMNSLRAEDTAVYYCARWKTLRVGVWDESDYWGQGTLVTVSS",
    "pEC50": 7.56
  },
  {
    "Binder": "VV02-1LP-263 huNb_2_3 (Fc fusion, not shown: a dimerising Fc or GST, detection by anti-human Fc) VHH: EVQLVESGGGLVQPGGSLRLSCAASGFTFSSSAMSWARQAPGKGFEWVSGIYSGGSTYYTESVKDRFTISRDNAKNTVYLQMNSLKPEDTAVYYCATWGTLRFGVWAEYDHWGQGTLVTVSS",
    "pEC50": 9.96
  }
]

According to the records, this binder VV02-1LP-263 huNb_2_2 (Fc fusion, not shown: a dimerising Fc or GST, detection by anti-human Fc) VHH: EVQLVESGGGLVQPGGSLRLSCAASGFTFSSSAMSWARQAPGKGLEWVSGIYSGGSTYYTESVKDRFTISRDNAKNTLYLQMNSLRPEDTAVYYCATWGTLRFGVWAEYDHWGQGTLVTVSS displays pEC50 of 9.72

According to the records, this binder VV02-1SP (1)-73 huNb_2_2 (Fc fusion, detection by anti-human Fc; not shown: Fc part, implied only by the anti-human Fc secondary antibody) VHH: EVQLVESGGGLIQPGGSLRLSCAASGFTFSSSAMSWARQAPGKEFEWVSSIYSSGKTYYVESVKGRFTISRDNAKNTLYLQMSSLRAEDTAVYYCATWKTLRVGVWDESDYWGQGTQVTVSS displays pEC50 of 9.43

According to the records, this binder VV02-1SP (1)-73 huNb_1_2 (Fc fusion, detection by anti-human Fc; not shown: Fc part, implied only by the anti-human Fc secondary antibody) VHH: EVQLLESGGGLVQPGGSLRLSCAASGFTFSSSAMSWARQAPGKELEWVSSIYSSGKTYYVESVKGRFTISRDNAKNTLYLQMSSLRAEDTAVYYCATWKTLRVGVWDESDYWGQGTLVTVSS displays pEC50 of 9.10

According to the records, this binder VV02-1LP-263 huNb_1_3 (Fc fusion, not shown: a dimerising Fc or GST, detection by anti-human Fc) VHH: EVQLLESGGGLVQPGGSLRLSCAASGFTFSSSAMSWARQTPGKGFEWVSGIYSGGSTYYTESVKDRFTISRDNSKNTVYLQMNSLKPEDTAVYYCATWGTLRFGVWAEYDHWGQGTQVTVSS displays pEC50 of 9.96

According to the records, this binder VV02-1LP-263 huNb_3_2 (Fc fusion, not shown: a dimerising Fc or GST, detection by anti-human Fc) VHH: QVQLVESGGGLVKPGGSLRLSCAASGFTFSSSAMSWARQAPGKGFEWVSGIYSGGSTYYTESVKDRFTISRDNAKNSLYLQMNSLRPEDTAVYYCATWGTLRFGVWAEYDHWGQGTQVTVSS displays pEC50 of 9.85

According to the records, this binder VV02-1SP (1)-73 huNb_3_3 (Fc fusion, detection by anti-human Fc; not shown: Human Fc part, implied only by the anti-human Fc secondary antibody) VHH: EVQLVESGGGLVQPGGSLRLSCAVSGFTFSSSAMSWARQAPGKEFEWVSSIYSSGKTYYVESVKGRFTISRDNAKNSVYLQMSSLRPEDTAVYYCATWKTLRVGVWDESDYWGQGTLVTVSS displays pEC50 of 9.18

According to the records, this binder VV02-1LP-263 huNb_1_2 (Fc fusion, not shown: a dimerising Fc or GST, detection by anti-human Fc) VHH: EVQLLESGGGLVQPGGSLRLSCAASGFTFSSSAMSWARQAPGKGLEWVSGIYSGGSTYYTESVKDRFTISRDNSKNTVYLQMNSLKPEDTAVYYCATWGTLRFGVWAEYDHWGQGTLVTVSS displays pEC50 of 9.77

According to the records, this binder VV02-1SP (1)-73 huNb_3_2 (Fc fusion, detection by anti-human Fc; not shown: Human Fc part, implied only by the anti-human Fc secondary antibody) VHH: EVQLVESGGGLVQPGGSLRLSCAASGFTFSSSAMSWARQAPGKGFEWVSSIYSSGKTYYVESVKGRFTISRDNAKNSLYLQMSSLRAEDTAVYYCATWKTLRVGVWDESDYWGQGTLVTVSS displays pEC50 of 9.28
